tested on: mouse splenic lymphocyte; test: In vitro mouse splenic lymphocyte-proliferation-stimulating effect (3H-TdR uptake); assay type: cell-based, mouse (BDF1 female); details: Mus musculus, Splenic lymphocyte, 48 h; 10^-3 μg/ml, 2 days; read-out: Uptake of 3H-TdR (% of control), splenic lymphocytes
ASSAY_ENDPOINT: activity at 0.001 µg/mL (%)
Number in %, nothing else.

q: Give activity at 0.001 µg/mL for CCCCCCCCCCCCCCCCCCCCCC[C@@H](O)C(=O)N[C@@H](CO[C@H]1O[C@H](CO)[C@H](O)[C@H](O[C@@H]2O[C@@H]([C@H](O)CO)[C@H](O)[C@H]2O)[C@H]1O)[C@H](O)[C@H](O)CCCCCCCCCCCCC(C)C [Compound 17]
a: 767

q: Give activity at 0.001 µg/mL for CCCCCCCCCCCCCCCCCCCCCC[C@@H](O)C(=O)N[C@@H](CO[C@H]1O[C@H](CO)[C@H](O)[C@H](O[C@@H]2O[C@@H]([C@H](O)CO)[C@H](O)[C@H]2O)[C@H]1O)[C@H](O)[C@H](O)CCCCCCCCCCCCCC [Compound 16]
a: 702

q: Give activity at 0.001 µg/mL for CCCCCCCCCCCCCCCCCCCCCC[C@@H](O)C(=O)N[C@@H](CO[C@H]1O[C@H](CO)[C@H](O)[C@H](O[C@@H]2O[C@@H]([C@H](O)CO)[C@H](O)[C@H]2O)[C@H]1O)[C@H](O)[C@H](O)CCCCCCCCCCCC(C)C [Compound 15]
a: 394

q: Give activity at 0.001 µg/mL for CCCCCCCCCCCCCCCCCCCC[C@@H](O)C(=O)N[C@@H](CO[C@H]1O[C@H](CO)[C@H](O)[C@H](O[C@@H]2O[C@@H]([C@H](O)CO)[C@H](O)[C@H]2O)[C@H]1O)[C@H](O)[C@H](O)CCCCCCCCCCCC [Compound 10]
a: 102
